System: Bacillus cereus
Assay: Antimicrobial activity against Bacillus cereus ATCC 14579 after 24 hrs by broth microdilution method
Type: functional
Settings: ATCC 14579, 24 h
reported_endpoint: log10 of MIC (log10 of the value in µM)
All values: log10 MIC [µM].

These solved cases illustrate the format of a correct answer.
# chemical_string, assay_target, log10 of MIC
data = [
    ("O=C(N[C@@H](Cc1ccccc1)C(=O)Nc1ccc(Cl)c(Cl)c1)c1ccc(Cl)cc1O", "Bacillus cereus", 0.03),
    ("CC(C)[C@H](NC(=O)c1cc(Cl)ccc1O)C(=O)Nc1ccc(C(F)(F)F)cc1", "Bacillus cereus", 0.38),
    ("Cc1ccc(NC(=O)c2cc(Cl)ccc2OC(=O)[C@H](Cc2ccccc2)NC(=O)OCc2ccccc2)cc1", "Bacillus cereus", 1.47),
    ("CC(C)[C@H](NC(=O)c1ccc(Cl)cc1O)C(=O)Nc1ccc(Br)cc1", "Bacillus cereus", 0.37),
    ("O=C(Nc1ccc(Cl)cc1)c1cc(Cl)ccc1O", "Bacillus cereus", 1.15),
    ("O=C(Nc1ccc(C(F)(F)F)cc1)c1cc(Cl)ccc1O", "Bacillus cereus", -1.00),
    ("CC(C)[C@H](NC(=O)OCc1ccccc1)C(=O)Oc1ccc(Cl)cc1C(=O)Nc1ccc(Br)cc1", "Bacillus cereus", 0.25),
]

Okay, next one:
So what does the record say about log10 of MIC for O=C(Nc1ccc(Br)cc1)c1cc(Cl)ccc1O ?
-0.42
